tested on: Staphylococcus epidermidis; experiment: Antibacterial activity against Staphylococcus epidermidis CPHL A2 (Gram positive) strain, activity is expressed as log2MIC.; assay type: functional
Some molecules, each annotated with its measured Log2 MIC.
quantity: Log2 MIC

{"columns": ["molecule", "measValue"],
 "data": [
  ["CC1CN(c2cc3c(cc2N)c(=O)c(C(=O)O)cn3C2CC2)CC(C)N1 (stereo not drawn)", 6],
  ["CN1CCN(c2c(F)cc3c(=O)c(C(=O)O)cn4c3c2SCC4)CC1", 8],
  ["CN1CCN(c2cc3c(cc2N)c(=O)c(C(=O)O)cn3-c2ccc(F)cc2)CC1", 4],
  ["CC(C)(C)n1cc(C(=O)O)c(=O)c2cc(N)c(N3CCc4ccccc43)cc21", 5],
  ["CC(C)(C)n1cc(C(=O)O)c(=O)c2cc(N)c(N3CCN(c4ccccn4)CC3)cc21", 7],
  ["CN1CCN(c2c(N)c(N)c3c(=O)c(C(=O)O)cn(C4CC4)c3c2F)CC1", 5],
  ["Nc1cc2c(=O)c(C(=O)O)cn(-c3ccc(F)cc3)c2cc1N1CCSCC1", 5],
  ["CN1CCN(c2cc3c(cc2N)c(=O)c(C(=O)O)cn3C2CC2)CC1", 6]
]}

* * *

system: Staphylococcus epidermidis; assay: Antibacterial activity against Staphylococcus epidermidis CPHL A2 (Gram positive) strain, activity is expressed as log2MIC.; assay type: functional

{"columns": ["compound", "targetDesc", "Log2 MIC"],
 "data": [
  ["Cc1c(N2CC(C)NC(C)C2)c(N)cc2c(=O)c(C(=O)O)cn(C3CC3)c12 (stereo not given)", "Staphylococcus epidermidis", 7],
  ["Nc1cc2c(=O)c(C(=O)O)cn(C3CC3)c2cc1N1CCC(O)CC1", "Staphylococcus epidermidis", 6],
  ["Nc1cc2c(=O)c(C(=O)O)cn(C3CC3)c2cc1N1CCSCC1", "Staphylococcus epidermidis", 7],
  ["Nc1cc2c(=O)c(C(=O)O)cn(C3CC3)c2c(F)c1N1CCSCC1", "Staphylococcus epidermidis", 8],
  ["CC(C)(C)n1cc(C(=O)O)c(=O)c2cc(N)c(N3CCCC3)cc21", "Staphylococcus epidermidis", 4]
]}

* * *

Some compounds, each annotated with its measured Log2 MIC.
system: Escherichia coli; experiment: Antibacterial activity against Escherichia coli ISF 432(Gram negative) strain.; assay type: functional

{"columns": ["compound", "Log2 MIC"],
 "data": [
  ["Cc1c(N2Cc3ccccc3C2)c(N)cc2c(=O)c(C(=O)O)cn(C3CC3)c12", 13],
  ["Cc1c(N2CCC(O)CC2)c(N)cc2c(=O)c(C(=O)O)cn(C3CC3)c12", 12],
  ["CC(=O)NC1CCN(c2c(N)cc3c(=O)c(C(=O)O)cn(C4CC4)c3c2C)C1 (configuration not stated)", 10],
  ["CC1CN(c2cc3c(cc2N)c(=O)c(C(=O)O)cn3C2CC2)CCN1 (configuration not stated)", 12],
  ["CC(C)(C)n1cc(C(=O)O)c(=O)c2cc(N)c(N3CCc4ccccc43)cc21", 10],
  ["CC(C)(C)n1cc(C(=O)O)c(=O)c2cc(N)c(N3CCN(c4ccccn4)CC3)cc21", 8],
  ["Cc1c(N2CCNC(C)C2)c(N)cc2c(=O)c(C(=O)O)cn(C3CC3)c12 (configuration not stated)", 12],
  ["CN1CCN(c2nc3c(cc2N)c(=O)c(C(=O)O)cn3C2CC2)CC1", 12],
  ["CN1CCN(c2nc3c(c(N)c2N)c(=O)c(C(=O)O)cn3C2CC2)CC1", 13],
  ["N#CCN1CCN(c2cc3c(cc2N)c(=O)c(C(=O)O)cn3C2CC2)CC1", 6],
  ["Nc1cc2c(=O)c(C(=O)O)cn(C3CC3)c2c(F)c1N1CCSCC1", 11],
  ["Cc1c(N2CCN(C)CC2)c(N)cc2c(=O)c(C(=O)O)cn(C3CC3)c12", 12],
  ["Nc1cc2c(=O)c(C(=O)O)cn(C3CC3)c2cc1N1CCC(N)C1 (configuration not stated)", 8],
  ["CN1CCN(c2cc3c(cc2N)c(=O)c(C(=O)O)cn3C(C)(C)C)CC1", 11],
  ["CC(C)(C)n1cc(C(=O)O)c(=O)c2cc(N)c(N3CCSCC3)cc21", 12],
  ["Nc1cc2c(=O)c(C(=O)O)cn(C3CC3)c2cc1N1CCNCC1", 12],
  ["Nc1cc2c(=O)c(C(=O)O)cn(C3CC3)c2cc1N1CCCC1", 9]
]}

* * *

Some molecules, each annotated with its measured Log2 MIC.
tested on: Staphylococcus epidermidis; assay: Antibacterial activity against Staphylococcus epidermidis HCF Berset C (Gram positive) strain.; assay type: functional
quantity: Log2 MIC

{"columns": ["molecule", "quantity", "measValue"],
 "data": [
  ["Cc1c(N2CCN(C)CC2)c(N)cc2c(=O)c(C(=O)O)cn(C3CC3)c12", "Log2 MIC", 7],
  ["CC(C)(C)n1cc(C(=O)O)c(=O)c2cc(N)c(N3CCN(c4ccccn4)CC3)cc21", "Log2 MIC", 6],
  ["Cc1c(N2CCNCC2)c(N)cc2c(=O)c(C(=O)O)cn(C3CC3)c12", "Log2 MIC", 4],
  ["CC(C)(C)n1cc(C(=O)O)c(=O)c2cc(N)c(N3CCc4ccccc4C3)cc21", "Log2 MIC", 7],
  ["N#CCN1CCN(c2cc3c(cc2N)c(=O)c(C(=O)O)cn3C2CC2)CC1", "Log2 MIC", 1],
  ["Nc1cc2c(=O)c(C(=O)O)cn(C3CC3)c2cc1N1CCC(N)C1 (centres undefined)", "Log2 MIC", 0],
  ["Cc1c(N2CCOCC2)c(N)cc2c(=O)c(C(=O)O)cn(C3CC3)c12", "Log2 MIC", 10],
  ["CC1CN(c2cc3c(cc2N)c(=O)c(C(=O)O)cn3C2CC2)CC(C)N1 (centres undefined)", "Log2 MIC", 5],
  ["Cc1c(N2CCC(O)CC2)c(N)cc2c(=O)c(C(=O)O)cn(C3CC3)c12", "Log2 MIC", 11],
  ["Nc1cc2c(=O)c(C(=O)O)cn(C3CC3)c2c(F)c1N1CCSCC1", "Log2 MIC", 7],
  ["CC1CN(c2cc3c(cc2N)c(=O)c(C(=O)O)cn3C2CC2)CCN1 (centres undefined)", "Log2 MIC", 5],
  ["Nc1cc2c(=O)c(C(=O)O)cn(C3CC3)c2cc1N1CCC(O)CC1", "Log2 MIC", 5],
  ["CC(=O)NC1CCN(c2c(N)cc3c(=O)c(C(=O)O)cn(C4CC4)c3c2C)C1 (centres undefined)", "Log2 MIC", 3],
  ["CN1CCN(c2cc3c(c(N)c2N)c(=O)c(C(=O)O)cn3C2CC2)CC1", "Log2 MIC", 0],
  ["CN1CCN(c2nc3c(c(N)c2N)c(=O)c(C(=O)O)cn3C2CC2)CC1", "Log2 MIC", 6],
  ["CC(C)(C)n1cc(C(=O)O)c(=O)c2cc(N)c(N3CCSCC3)cc21", "Log2 MIC", 8],
  ["Nc1cc2c(=O)c(C(=O)O)cn(C3CC3)c2cc1NC1CC1", "Log2 MIC", 0],
  ["Nc1cc2c(=O)c(C(=O)O)cn(-c3ccc(F)cc3)c2cc1N1CCSCC1", "Log2 MIC", 5],
  ["CC(C)(C)n1cc(C(=O)O)c(=O)c2cc(N)c(N3CCCC3)cc21", "Log2 MIC", 4]
]}

* * *

test system: Staphylococcus epidermidis; experiment: Antibacterial activity against Staphylococcus epidermidis HCF Berset C (Gram positive) strain.; type: functional

{"columns": ["molecule", "targetDesc", "Log2 MIC"],
 "data": [
  ["Cc1c(N2CCSCC2)c(N)cc2c(=O)c(C(=O)O)cn(C3CC3)c12", "Staphylococcus epidermidis", 10],
  ["Cc1c(N2CCNC(C)C2)c(N)cc2c(=O)c(C(=O)O)cn(C3CC3)c12 (stereo unspecified)", "Staphylococcus epidermidis", 7],
  ["CC(=O)NC1CCN(c2cc3c(cc2N)c(=O)c(C(=O)O)cn3C2CC2)C1 (stereo unspecified)", "Staphylococcus epidermidis", 0],
  ["CN1CCN(c2c(N)c(N)c3c(=O)c(C(=O)O)cn(C4CC4)c3c2F)CC1", "Staphylococcus epidermidis", 5],
  ["Nc1cc2c(=O)c(C(=O)O)cn(C3CC3)c2cc1N1CCCC1", "Staphylococcus epidermidis", 0],
  ["CN1CCN(c2cc3c(cc2N)c(=O)c(C(=O)O)cn3C2CC2)CC1", "Staphylococcus epidermidis", 5],
  ["Nc1cc2c(=O)c(C(=O)O)cn(C3CC3)c2cc1N1CCSCC1", "Staphylococcus epidermidis", 6],
  ["CN1CCN(c2c(N)cc3c(=O)c(C(=O)O)cn(C4CC4)c3c2F)CC1", "Staphylococcus epidermidis", 4],
  ["CN1CCN(c2cc3c(cc2N)c(=O)c(C(=O)O)cn3-c2ccc(F)cc2)CC1", "Staphylococcus epidermidis", 4],
  ["Nc1cc2c(=O)c(C(=O)O)cn(C3CC3)c2cc1N1CCNCC1", "Staphylococcus epidermidis", 3],
  ["Nc1cc2c(=O)c(C(=O)O)cn(C3CC3)c2cc1N1CCSC1", "Staphylococcus epidermidis", 1],
  ["Nc1cc2c(=O)c(C(=O)O)cn(C3CC3)c2cc1Cl", "Staphylococcus epidermidis", 1],
  ["CN1CCN(c2nc3c(cc2N)c(=O)c(C(=O)O)cn3C2CC2)CC1", "Staphylococcus epidermidis", 5],
  ["Cc1c(N2CC(C)NC(C)C2)c(N)cc2c(=O)c(C(=O)O)cn(C3CC3)c12 (stereo unspecified)", "Staphylococcus epidermidis", 6],
  ["NCCSc1cc2c(cc1N)c(=O)c(C(=O)O)cn2C1CC1", "Staphylococcus epidermidis", 0],
  ["Cc1c(N2CCCC2)c(N)cc2c(=O)c(C(=O)O)cn(C3CC3)c12", "Staphylococcus epidermidis", 3],
  ["CN1CCN(c2cc3c(cc2N)c(=O)c(C(=O)O)cn3C(C)(C)C)CC1", "Staphylococcus epidermidis", 5],
  ["CC(C)(C)n1cc(C(=O)O)c(=O)c2cc(N)c(N3CCc4ccccc43)cc21", "Staphylococcus epidermidis", 5],
  ["CN1CCN(c2c(F)cc3c(=O)c(C(=O)O)cn4c3c2SCC4)CC1", "Staphylococcus epidermidis", 7],
  ["NCCN1CCN(c2cc3c(cc2N)c(=O)c(C(=O)O)cn3C2CC2)CC1", "Staphylococcus epidermidis", 2],
  ["Cc1c(N2Cc3ccccc3C2)c(N)cc2c(=O)c(C(=O)O)cn(C3CC3)c12", "Staphylococcus epidermidis", 12]
]}
